Measured TGI, listed per entry.
Test system: HL-60(TB) leukemia
Assay: NCI tumour cell line growth inhibition, 48 h

{"columns": ["compound", "systemName", "TGI"],
 "data": [
  ["CCCCCCCCCC(=O)CC(=O)c1c(O)cccc1O", "HL-60(TB) leukemia", "45.3 µM"],
  ["COc1cc2c(cc1C)n(O)c(C)c(C(=O)C/C(=N/NC(=O)C[N+](C)(C)C)C(=O)Nc1cccc(Cl)c1C)[n+]2=O", "HL-60(TB) leukemia", "> 100 µM"],
  ["CCOC(=O)c1nc2cc(C(F)(F)F)ccc2nc1Nc1ccc(Cl)c(Cl)c1", "HL-60(TB) leukemia", "> 100 µM"],
  ["Cn1ccnc1C(=O)/C=C/c1ccc(C(=O)Nc2nc3ccccc3[nH]2)cc1", "HL-60(TB) leukemia", "> 25 µM"],
  ["CC(C)[Si]1(C(C)C)OCC2OC(n3ccc(=O)[nH]c3=O)C(O)(CO)C2O[Si](C(C)C)(C(C)C)O1 (stereo not given)", "HL-60(TB) leukemia", "> 100 µM"]
]}

---

Tested on: MALME-3M melanoma
Test: NCI tumour cell line growth inhibition, 48 h
assayEndpoint: log10 TGI (log10 of the value in µM)

{"columns": ["compound", "systemName", "testValue"],
 "data": [
  ["C=CCn1c(=O)c(C)cn(/C(=C/C(=O)OCC)C(=O)OCC)c1=O", "MALME-3M melanoma", 1.47],
  ["Fc1ccccc1C1CC(C(c2ccccc2)c2ccccc2)=Nc2ccccc2S1 (stereo not given)", "MALME-3M melanoma", 1.47],
  ["CC1=C(C(=O)OC(C)C)C(c2ccccc2[N+](=O)[O-])C(C(=O)OC(CO[N+](=O)[O-])CO[N+](=O)[O-])=C(C)N1 (stereo not given)", "MALME-3M melanoma", 1.37],
  ["C#Cc1ccc(NC(=O)c2ccc(/C=C/C(=O)c3nccn3C)cc2)cc1", "MALME-3M melanoma", 0.08],
  ["COc1cc([C@H]2Oc3c(c(O)cc4oc(-c5ccccc5)cc(=O)c34)O[C@@H]2CO)ccc1O", "MALME-3M melanoma", 1.92]
]}

---

System: EKVX NSCLC
Assay: NCI tumour cell line growth inhibition, 48 h
Item-by-item account of log10(TGI)
assayEndpoint: log10(TGI) (log10 of the value in µM)

{"columns": ["molecule", "log10(TGI)"],
 "data": [
  ["COc1ccc(C(Nc2ncccn2)c2cc3c(cc2O)OCO3)cc1 (configuration not stated)", 1.75],
  ["CSc1c(C#N)c2n(c3ccccc3[n+]2C)c2ncccc12", 1.70],
  ["CC(=O)c1cccc(NC2C(N)C(NC(=O)N(C)C)(C(C)O)C(C)(O)C2(O)COC(=O)c2c(C)cccc2O)c1 (configuration not stated)", -1.10],
  ["C=C(Cl)C(Cl)(CBr)CCC(Cl)C(C)(C)Cl (configuration not stated)", 1.32],
  ["COc1ccc(-c2ccc(-c3ccc(C(=N)N)cn3)s2)cc1Cl", 0.53],
  ["CC(=O)OC1CCC2(C)C(=CC(C3C=C4CC(OC(C)=O)CCC4(C)C4=C3C3CC5OC6(CCC(C)CO6)C(C)C5C3(C)CC4)C3=C2CCC2(C)C3CC3OC4(CCC(C)CO4)C(C)C32)C1 (configuration not stated)", 1.57],
  ["COc1cc(CC2c3cc(OC)c(OC)cc3CCN2C)c(Oc2cc3c(cc2OC)-c2c(OC)c(OC)c(OC)c4c2C(C3)N(C)CC4)cc1OC (configuration not stated)", 1.49]
]}

---

Readings of TGI for the listed compounds
Tested on: HCT-116 colon
Assay: NCI tumour cell line growth inhibition, 48 h

{"columns": ["compound", "systemName", "TGI"],
 "data": [
  ["Cc1cccc2c1C(=O)C(C1OC(=O)c3ccccc31)C2 (stereo not given)", "HCT-116 colon", "> 100 µM"],
  ["CCOC(=O)c1nc2cc(C(F)(F)F)ccc2nc1Nc1ccc(Cl)c(Cl)c1", "HCT-116 colon", "> 100 µM"],
  ["CCOC(=O)C(C)(C)Oc1ccc2c(-c3ccc(Cl)cc3)cc(=O)oc2c1", "HCT-116 colon", "> 100 µM"],
  ["O/N=C\\c1cc(O)c(O)c(/C=N/O)c1", "HCT-116 colon", "> 100 µM"],
  ["CC(=O)OC1CCC2(C)C(=CC(C3C=C4CC(OC(C)=O)CCC4(C)C4=C3C3CC5OC6(CCC(C)CO6)C(C)C5C3(C)CC4)C3=C2CCC2(C)C3CC3OC4(CCC(C)CO4)C(C)C32)C1 (stereo not given)", "HCT-116 colon", "28.4 µM"]
]}

---

Test system: MDA-MB-435
Experiment: NCI tumour cell line growth inhibition, 48 h

{"columns": ["compound", "inequalitySign", "TGI [µM]"],
 "data": [
  ["CC1(C)CCc2c(c(N=Nc3ccccc3)c3ccccc3c2O)O1", "=", 83.5],
  ["COc1ccc(/C=C\\c2cc(OC)c(OC)c(OC)c2)c(NS(=O)(=O)c2ccc(C)cc2)c1O", "=", 0.0621],
  ["CC(Cc1ccc(O)c(O)c1)C(C)Cc1ccc(O)c(O)c1 (stereo not given)", "=", 28.3],
  ["CC1=C(C(=O)OC(C)C)C(c2ccccc2[N+](=O)[O-])C(C(=O)OC(CO[N+](=O)[O-])CO[N+](=O)[O-])=C(C)N1 (stereo not given)", "=", 13.2],
  ["Cn1cnc([N+](=O)[O-])c1Sc1ncnc2c1ncn2C1OC(CO)C(O)C1O (stereo not given)", ">", 100],
  ["O=C(/C=C/c1ccc(Cl)c(Cl)c1)Oc1ccc(/C=C2\\CCCCC2=O)cc1", ">", 100],
  ["CC(=O)OC1CCC2(C)C(=CC(C3C=C4CC(OC(C)=O)CCC4(C)C4=C3C3CC5OC6(CCC(C)CO6)C(C)C5C3(C)CC4)C3=C2CCC2(C)C3CC3OC4(CCC(C)CO4)C(C)C32)C1 (stereo not given)", "=", 27.1],
  ["FC(F)(F)c1ccc(-c2cnc(Br)nc2NC2CCCCCC2)cc1", ">", 100],
  ["CCSC1=CC(=O)c2ccccc2C1=O", "=", 7.02],
  ["CN1CCN(c2ccc3[nH]c(C4=C(O)c5nc(CO)n(C)c5C(=O)C4=O)nc3n2)CC1", ">", 100]
]}

---

System: SNB-75 CNS
Experiment: NCI tumour cell line growth inhibition, 48 h
This section presents compounds with their documented GI50 values.

{"columns": ["compound", "GI50"],
 "data": [
  ["O=c1[nH]c(-c2ccc(C(F)(F)F)cc2)nc2c1CSCC2", "21.2 µM"],
  ["O=C(/C=C/c1cccc(Cl)c1)c1ccc(Cl)cc1Cl", "9.5 µM"],
  ["COC(=O)CCC1=C(C)c2cc3[n-]c(cc4nc(cc5[n-]c(cc1n2)c(CCC(=O)OC)c5C)C=C4C)cc3C.[Cd+2]", "6.62 µM"],
  ["CCSC1=CC(=O)c2ccccc2C1=O", "14.8 µM"],
  ["c1ccc(-c2nc(N3CCNCC3)c3nc(-c4ccccc4)oc3n2)cc1", "1.26 µM"],
  ["CCNCCNc1cc(-c2ccc(F)cc2)c(C#N)c2nc3ccccc3n12", "1.81 µM"],
  ["C[C@H]1[C@@H](OCC(CO[C@H]2O[C@@H]3O[C@@]4(C)CC[C@H]5[C@H](C)CC[C@@H]([C@H]2C)[C@@]35OO4)=NOCC(=O)O)OC2O[C@@]3(C)CC[C@H]4[C@H](C)CC[C@@H]1[C@@]24OO3 (some centres undefined)", "0.698 µM"],
  ["COc1ccc(/C=C2\\N=C3SC=C(N)N3C2=O)cc1", "0.757 µM"],
  ["CCCC[C@@H](COC(=O)N(Cc1cccs1)Cc1cccs1)NC(=O)N[C@@H](CC(=O)OC)c1ccc2c(c1)OCO2", "> 100 µM"]
]}

---

GI50 values for the compounds below.
Tested on: BT-549 breast
Experiment: NCI tumour cell line growth inhibition, 48 h
assayEndpoint: GI50

{"columns": ["compound", "testValue"],
 "data": [
  ["Oc1ccccc1-n1c(-c2ccccc2)ccc1-c1ccccc1", "13.4 µM"],
  ["COc1cc(C2C(C#N)=C(N)OC3=C2C(=O)c2ccccc2C3=O)cc(OC)c1OC (stereo unspecified)", "1.43 µM"],
  ["O=C1/C(=C/c2cccs2)CCC/C1=C\\c1cccs1", "> 58.3 µM"],
  ["O=C(/C=C/c1cccc(Cl)c1)c1ccc(Cl)cc1Cl", "8.94 µM"],
  ["Fc1ccc(-c2ncn(C3CCNCC3)c2-c2ccnc(Oc3cccc(F)c3)n2)cc1", "> 24 µM"],
  ["COc1ccc(/C=C\\c2cc(OC)c(OC)c(OC)c2)c(NS(=O)(=O)c2ccc(C)cc2)c1O", "0.035 µM"]
]}
